B1: HDV Ribozyme (parent)
chain: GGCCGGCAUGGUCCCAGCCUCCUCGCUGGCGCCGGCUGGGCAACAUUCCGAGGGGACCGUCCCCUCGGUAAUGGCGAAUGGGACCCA

- Variants of: B1
- test.name: self-cleavage, relative activity (ratio to wild type); higher = more cleavage; co-transcriptional
property.name: self-cleavage

In [3]: df
Out[3]:
    residue_change  property_name  obs_value
 0       U12C G80A  self-cleavage      0.243
 1        G5U U46A  self-cleavage      0.119
 2        G6A A45U  self-cleavage      0.486
 3       C13G G67U  self-cleavage      0.101
 4       C14U C44A  self-cleavage       1.01
 5       G39U G73A  self-cleavage      0.249
 6       G25C C85A  self-cleavage     0.0594
 7       G59A U79G  self-cleavage      0.906
 8       G28C G40A  self-cleavage      0.148
 9       C36G C66A  self-cleavage      0.162
10       C21G C26A  self-cleavage          0
11       C21U G68U  self-cleavage      0.271
12        C7U U27G  self-cleavage      0.431
13       U23C G80U  self-cleavage       0.16
14       C57U G80U  self-cleavage      0.147
15       C33U G76U  self-cleavage       1.02
16       A56C A87G  self-cleavage      0.846
17       G55U C84A  self-cleavage      0.886
18       G54C G68A  self-cleavage      0.858
19       C24G C33U  self-cleavage      0.104
20       C13A C62G  self-cleavage      0.287
21       G34C G40A  self-cleavage      0.354
